- Test system: IICR (IP3 induced calcium release) in CHO cells
- Procedure text: Assay of IICR (IP3 induced calcium release)-inhibiting action
- Format: cell-based, Chinese hamster
- Measurement conditions: Cricetulus griseus, CHO, test compound 30 μmol; CHO cells, 10 μM ATP; read-out: IICR level (percentage of inhibition)
Field: inhibition at 30 µM. Provide a value for each of the molecules that follow.
Numbers only, in %.

Guide cases for inhibition at 30 µM, answers given:
CCCCN(CCO)CCC(=O)c1nc(C)cs1 :: 0
O=C(CCN(CCO)c1ccccc1)c1ccccc1 :: 20
CC(C)N(CCC(=O)c1ccccc1)Cc1ccccc1 :: 20
CC(C)N(CCC(=O)c1ccc(Cl)s1)Cc1ccccc1 :: 0
CCN(CCC(=O)c1cccs1)Cc1ccccc1 :: 0

Your task in this section: give inhibition at 30 µM for each listed record.
1. CCN(CCC(=O)c1ccc(C)s1)Cc1ccccc1
2. Cc1csc(C(=O)CCN(Cc2ccccc2)C(C)(C)C)c1
3. COC(=O)C(CSSCC(NCCC(=O)c1ccc(C#N)cc1)C(=O)OC)NCCC(=O)c1ccc(C#N)cc1 (centres unmarked)
4. CC(CN(CCO)Cc1ccccc1)C(=O)c1ccc(F)cc1 (centres unmarked)

10
90
0
0

Please supply inhibition at 30 µM for each of the following items, keeping them in order.
1. O=C(CCNCCCO)c1cnccn1
2. O=C(CCNCc1ccccc1)c1ccncc1
3. O=C(CCN1CCCCC1CO)c1ccc(Br)s1 (centres unmarked)
4. CC(C)N(CCO)CCC(=O)c1cnccn1
5. CC(C)N(CCO)CCC(=O)c1ccc(C#N)cc1

0
0
50
20
0

Dear colleague, could you please provide inhibition at 30 µM for the molecules listed below?
1. O=C(CCNCCc1ccccc1)c1ccsc1
2. CCN(CCC(=O)c1nccs1)Cc1ccccc1
3. CCCCN(CCC(=O)c1ccc(Cl)s1)Cc1ccccc1
4. CCC(C)N(CCC(=O)c1sccc1Br)C(C)CC (centres unmarked)

[0, 80, 8, 81]

Hi! Can you tell me inhibition at 30 µM for each of these molecules?
1. Cc1nc(C)c(C(=O)CCN(Cc2ccccc2)C(C)C)s1
2. CCN(CCO)CCC(=O)c1cc(C)sc1C
3. O=C(CCNCCS)c1ccc(Oc2ccccc2)cc1
4. COC(=O)C(CSSCC(NCCC(=O)c1ccc(C)s1)C(=O)OC)NCCC(=O)c1ccc(C)s1 (centres unmarked)
5. CC(C)N(CCO)CCC(=O)c1ccc(Br)s1
6. CC(C)N(CCC(=O)c1ccc(I)s1)Cc1ccccc1
7. O=C(CCN(CCO)Cc1ccccc1)c1ccsc1
8. CN(CCC(=O)c1ccsc1)Cc1ccccc1

90
0
30
17
10
0
50
10
